Kindly state pIC50 for each of the entries shown.
# target-system: Disintegrin and metalloproteinase domain-containing protein 17 (Homo sapiens, UniProt P78536)
# Sequence (P78536 whole entry, the tested form may be a part): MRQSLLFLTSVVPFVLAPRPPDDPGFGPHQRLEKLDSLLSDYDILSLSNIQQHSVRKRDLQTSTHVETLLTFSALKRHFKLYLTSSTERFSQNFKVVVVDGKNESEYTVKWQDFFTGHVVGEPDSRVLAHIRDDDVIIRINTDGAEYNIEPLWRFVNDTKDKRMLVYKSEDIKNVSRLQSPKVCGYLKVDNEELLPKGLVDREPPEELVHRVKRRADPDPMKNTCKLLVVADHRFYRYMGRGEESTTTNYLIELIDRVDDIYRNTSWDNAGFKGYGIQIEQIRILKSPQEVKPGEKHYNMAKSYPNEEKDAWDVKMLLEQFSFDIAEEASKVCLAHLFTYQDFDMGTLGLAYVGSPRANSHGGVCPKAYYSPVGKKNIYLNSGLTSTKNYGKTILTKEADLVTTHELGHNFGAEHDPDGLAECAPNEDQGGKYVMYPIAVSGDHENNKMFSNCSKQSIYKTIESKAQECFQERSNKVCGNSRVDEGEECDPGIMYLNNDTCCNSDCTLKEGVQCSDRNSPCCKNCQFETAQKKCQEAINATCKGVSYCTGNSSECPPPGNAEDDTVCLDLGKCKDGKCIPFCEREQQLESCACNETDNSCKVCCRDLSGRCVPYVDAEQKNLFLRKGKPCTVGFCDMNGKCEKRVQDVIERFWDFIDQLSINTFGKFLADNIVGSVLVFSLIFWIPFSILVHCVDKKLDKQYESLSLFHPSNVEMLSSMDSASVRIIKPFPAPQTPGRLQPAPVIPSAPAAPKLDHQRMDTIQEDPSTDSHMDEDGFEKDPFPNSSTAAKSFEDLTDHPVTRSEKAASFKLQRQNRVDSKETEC
# procedure-text: Inhibition of ADAM-17 in human SKOV3 cells transfected with luciferase gene assessed as inhibition of EGF-induced sALCAM release incubated for 30 mins prior to EGF induction measured after 18 hrs by ELISA
# Type: cell-based, SK-OV-3
Answers are plain numbers, as −log10 of the molar value.

Example compounds with recorded pIC50:
>>> assay_result("CC#CCOc1ccc(S(=O)(=O)N[C@H](CCNC(=O)OCc2ccccc2)C(=O)NO)cc1")
6.02
>>> assay_result("O=C(NCCC[C@@H](NS(=O)(=O)c1ccc(OCc2cc(Br)cc(Br)c2)cc1)C(=O)NO)OCc1ccccc1")
5.25
>>> assay_result("NC(=O)NCCC[C@@H](NS(=O)(=O)c1ccc(OCc2cc(Br)cc(Br)c2)cc1)C(=O)NO")
5.37

Now take the following compound into account.
INPUT: Any idea what its pIC50 is? The compound is O=C(NCC[C@@H](NS(=O)(=O)c1ccc(OCc2cc(Br)cc(Br)c2)cc1)C(=O)NO)OCc1ccccc1
OUTPUT: 5.02

###

# target-system: Disintegrin and metalloproteinase domain-containing protein 17 (Homo sapiens, UniProt P78536)
# procedure-text: Inhibition of ADAM-17 in human SKOV3 cells transfected with luciferase gene assessed as inhibition of pervanadate-induced sALCAM release incubated for 30 mins prior to pervanadate induction measured after 90 mins by ELISA
# Format: cell-based, SK-OV-3
Note to self: use met only for IC50 readings below 400 nM; a reading exactly at 400 nM still gets not met.

Use these answered entries as a reference point.
>>> qualitative_label("O=C(CNS(=O)(=O)c1ccc(OCc2cc(Br)cc(Br)c2)cc1)NO")
"not met"
>>> qualitative_label("NC(=O)NCCC[C@@H](NS(=O)(=O)c1ccc(OCc2cc(Br)cc(Br)c2)cc1)C(=O)NO")
"met"
>>> qualitative_label("O=C(NCC[C@@H](NS(=O)(=O)c1ccc(OCc2cc(Br)cc(Br)c2)cc1)C(=O)NO)OCc1ccccc1")
"not met"
>>> qualitative_label("CC#CCOc1ccc(S(=O)(=O)N[C@H](CCNC(=O)OCc2ccccc2)C(=O)NO)cc1")
"met"

Now consider the entry below.
INPUT: IC50 under 400 nM? Item: O=C(NCCC[C@@H](NS(=O)(=O)c1ccc(OCc2cc(Br)cc(Br)c2)cc1)C(=O)NO)OCc1ccccc1
OUTPUT: met

###

Kindly state pIC50 for each of the entries shown.
# target-system: Interstitial collagenase (Homo sapiens, UniProt P03956)
# Sequence (P03956 whole entry): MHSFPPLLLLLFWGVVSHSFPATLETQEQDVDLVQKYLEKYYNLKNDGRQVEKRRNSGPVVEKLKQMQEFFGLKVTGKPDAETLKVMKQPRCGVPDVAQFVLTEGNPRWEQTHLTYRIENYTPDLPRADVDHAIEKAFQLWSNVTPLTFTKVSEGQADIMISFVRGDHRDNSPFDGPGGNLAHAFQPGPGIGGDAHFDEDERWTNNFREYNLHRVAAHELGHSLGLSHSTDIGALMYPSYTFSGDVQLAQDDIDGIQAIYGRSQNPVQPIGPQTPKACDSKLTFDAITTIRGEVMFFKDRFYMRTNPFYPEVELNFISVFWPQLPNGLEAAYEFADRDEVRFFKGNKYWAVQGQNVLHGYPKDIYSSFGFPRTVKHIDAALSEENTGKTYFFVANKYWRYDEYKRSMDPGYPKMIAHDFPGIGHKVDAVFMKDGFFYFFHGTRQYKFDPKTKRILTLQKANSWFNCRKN
# procedure-text: Inhibition of recombinant human MMP-1 using Mca-Lys-Pro-Leu-Gly-Leu-Dap(Dnp)-Ala-Arg-NH2 as substrate incubated for 4 hrs measured every 15 secs for 20 mins by fluorimetric assay
Answers are plain numbers, as −log10 of the molar value.

Example molecules with recorded pIC50:
>>> assay_result("O=C(CNS(=O)(=O)c1ccc(OCc2cccc3cccnc23)cc1)NO")
3.21
>>> assay_result("O=C(CNS(=O)(=O)c1ccc(OCc2ccc(OC(F)(F)F)cc2)cc1)NO")
4.13
>>> assay_result("O=C(CNS(=O)(=O)c1ccc(OCc2cccc(F)c2)cc1)NO")
4.21
>>> assay_result("O=C(CNS(=O)(=O)c1ccc(OCc2ccc(F)cc2)cc1)NO")
4.49
>>> assay_result("CC#CCOc1ccc(S(=O)(=O)NCC(=O)NO)cc1")
4.55
>>> assay_result("O=C(NCCC[C@@H](NS(=O)(=O)c1ccc(OCc2cc(Br)cc(Br)c2)cc1)C(=O)NO)OCc1ccccc1")
3.43

INPUT: Any idea what its pIC50 is? The molecule is O=C(CNS(=O)(=O)c1ccc(OCc2cccc(-c3ccccc3)c2)cc1)NO
OUTPUT: 4.00

###

# target-system: Disintegrin and metalloproteinase domain-containing protein 17 (Homo sapiens)
# procedure-text: Inhibition of ADAM-17 in human A2774 cells assessed as inhibition of EGF-induced sALCAM release incubated for 30 mins prior to EGF induction measured after 18 hrs by ELISA
# Format: cell-based
measurement-label: pIC50
Numbers only, as −log10 of the molar value.

>>> assay_result("O=C(NCCC[C@@H](NS(=O)(=O)c1ccc(OCc2cc(Br)cc(Br)c2)cc1)C(=O)NO)OCc1ccccc1")
5.12

Now take the following compound into account.
INPUT: Any idea what its pIC50 is? The compound is NC(=O)NCCC[C@@H](NS(=O)(=O)c1ccc(OCc2cc(Br)cc(Br)c2)cc1)C(=O)NO
OUTPUT: 6.19

###

# target-system: Disintegrin and metalloproteinase domain-containing protein 17 (Homo sapiens, UniProt P78536)
# procedure-text: Inhibition of ADAM-17 in human A2780 cells assessed as inhibition of EGF-induced sALCAM release incubated for 30 mins prior to EGF induction measured after 18 hrs by ELISA
# Assay type: cell-based
Kindly state pIC50 for each of the entries shown.
Give bare numbers, as −log10 of the molar value.

>>> assay_result("O=C(NCCC[C@@H](NS(=O)(=O)c1ccc(OCc2cc(Br)cc(Br)c2)cc1)C(=O)NO)OCc1ccccc1")
5.00
>>> assay_result("NC(=O)NCCC[C@@H](NS(=O)(=O)c1ccc(OCc2cc(Br)cc(Br)c2)cc1)C(=O)NO")
6.07

INPUT: Any idea what its pIC50 is? The molecule is CC#CCOc1ccc(S(=O)(=O)N[C@H](CCNC(=O)OCc2ccccc2)C(=O)NO)cc1
OUTPUT: 5.84

###

Kindly state IC50 for each of the entries shown.
# target-system: Disintegrin and metalloproteinase domain-containing protein 17 (Homo sapiens, UniProt P78536)
# procedure-text: Inhibition of recombinant human ADAM-17 using Mca-Lys-Pro-Leu-Gly-Leu-Dap(Dnp)-Ala-Arg-NH2 as substrate incubated for 30 mins measured every 15 secs for 20 mins by fluorimetric assay
Give bare numbers, in nM.

Example compounds with recorded IC50:
>>> assay_result("O=C(CNS(=O)(=O)c1ccc(OCc2cccc(-c3ccccc3)c2)cc1)NO")
76
>>> assay_result("O=C(CNS(=O)(=O)c1ccc(OCc2ccc(-c3ccccc3)cc2)cc1)NO")
640
>>> assay_result("O=C(CNS(=O)(=O)c1ccc(OCc2cc(F)cc(F)c2)cc1)NO")
82
>>> assay_result("O=C(CNS(=O)(=O)c1ccc(OCc2ccccc2)cc1)NO")
590
>>> assay_result("O=C(CNS(=O)(=O)c1ccc(OCc2cccc(Br)c2)cc1)NO")
104
>>> assay_result("O=C(CNS(=O)(=O)c1ccc(OCc2cccc(F)c2)cc1)NO")
71

For each of the items listed, what is its IC50?
1. CN(CC(=O)NO)S(=O)(=O)c1ccc(OCc2cc(Br)cc(Br)c2)cc1
2. O=C(CNS(=O)(=O)c1ccc(OCc2ccc(Br)cc2)cc1)NO
3. O=C(CNS(=O)(=O)c1ccc(OCc2ccc(F)cc2)cc1)NO
4. O=C(CNS(=O)(=O)c1ccc(OCc2ccc(OC(F)(F)F)cc2)cc1)NO
5. O=C(NCC[C@@H](NS(=O)(=O)c1ccc(OCc2cc(Br)cc(Br)c2)cc1)C(=O)NO)OCc1ccccc1
6. O=C(CNS(=O)(=O)c1ccc(OCc2cc(Br)cc(-c3cccnc3)c2)cc1)NO
7. O=C(NCCC[C@@H](NS(=O)(=O)c1ccc(OCc2cc(Br)cc(Br)c2)cc1)C(=O)NO)OCc1ccccc1

OUTPUT:
[160, 16, 145, 200, 43, 500, 11]

For each of the items listed, what is its IC50?
1. COc1ccc(-c2cc(Br)cc(COc3ccc(S(=O)(=O)NCC(=O)NO)cc3)c2)cc1
2. CC#CCOc1ccc(S(=O)(=O)NCC(=O)NO)cc1
3. O=C(CNS(=O)(=O)c1ccc(OCc2cc(Br)cc(Br)c2)cc1)NO

OUTPUT:
1: 320; 2: 17; 3: 105

For each of the items listed, what is its IC50?
1. O=C(CNS(=O)(=O)c1ccc(OCc2cccc3cccnc23)cc1)NO
2. O=C(CNS(=O)(=O)c1ccc(OCc2cccc(OC(F)(F)F)c2)cc1)NO

OUTPUT:
1: 650; 2: 280
